Test system: A498 renal
Test: NCI-60 one-dose screen, 48 h (100 = growth as untreated, 0 = no growth, -100 = all killed)
Settings: 10 µM unless noted
About 83,000 compounds went through this panel and 20% of them were active in at least one assay; those are over-represented in the sample as a whole. Calls of active or inactive are those of the source. How the source made its calls: active means growth percent below 10; inactive means the rest.
measuredMetric: growth

Answered cases to consult:
O=C(Cn1nnc2ccccc21)Nc1ccc(-c2nc3ccccc3s2)cc1 :: 85.1% (inactive)
COc1cccc(Nc2ccnc3[nH]c4ccc([N+](=O)[O-])cc4c23)c1 :: 43.5% (inactive)
C[C@@H](CO)[C@@H]1CC[C@]2(C(=O)N3CCN(C)CC3)CC[C@]3(C)[C@H](CC[C@@H]4[C@@]5(C)CC[C@H](O)C(C)(C)[C@@H]5CC[C@]43C)[C@@H]12 :: 89% (inactive)
CN1CCCc2cc(/C=C3/SC(=S)N(CCc4ccc(O)cc4)C3=O)ccc21 :: 73.5% (inactive)
CCN1CCN(CC(=O)Nc2nc3ccc(NCc4ccc(Br)cc4)cc3s2)CC1 :: 88.8% (inactive)

Record lookup: for A498 renal, what growth belongs to `O=C1Nc2ccc(F)cc2/C1=N/c1nnc(Sc2ccccc2)s1` ? 79% (inactive)

Record lookup: for A498 renal, what growth belongs to `COc1ccc(/C=C/C(=O)c2cc3c(N)c(C(=O)Nc4ccc(OC)cc4)sc3nc2C)cc1` ? 18.6% (inactive)

Record lookup: for A498 renal, what growth belongs to `O=C1/C=C/[C@@H](O)[C@@H]2C[C@@H](O)C[C@H]2/C=C/CCC[C@H](CCOCc2ccccc2)O1` ? -28.5% (active)

Record lookup: for A498 renal, what growth belongs to `CCN(CC)c1ccc(N2C(=O)/C(=C/c3cccs3)SC2=S)cc1` ? 71.1% (inactive)

Record lookup: for A498 renal, what growth belongs to `COc1ccc2cc(-c3ccc(-c4ccc(C(=N)N)s4)s3)ccc2c1` ? 73.6% (inactive)

Record lookup: for A498 renal, what growth belongs to `Fc1ccc(COc2ccc(Nc3ncnc4sc5c(c34)CCCC5)cc2)cc1` ? 86.2% (inactive)

Record lookup: for A498 renal, what growth belongs to `CC(C)CSc1oc(-c2ccccc2)nc1S(=O)(=O)c1ccccc1` ? 84.9% (inactive)

====

System: OVCAR-8 ovarian
Experiment: NCI-60 one-dose screen, 48 h (100 = growth as untreated, 0 = no growth, -100 = all killed)
Conditions: 10 µM unless noted
Compounds without any hit were thinned out: in the full panel of roughly 83,000, 20% have a hit.
measuredMetric: growth (%)
Use % as the unit, but write only the number.

Answered cases to consult:
O=C(CN1CCN(c2cc3c(cc2F)c(=O)c(C(=O)O)cn3C2CC2)CC1)N/N=C/c1ccncc1 :: 97.5
Cc1cccc(N2CCN(C(=S)c3ccc4c(c3)OCO4)CC2)c1 :: 27.6
CCCn1c(=S)sc2c1nc(C)n1c(Nc3ccccc3)nnc21 :: 71.3
O=C1NC(=C(Cl)Cl)/C(=N/S(=O)(=O)N2CCCCC2)N1 :: 9.05
N#Cc1c(N2CCOCC2)nc(=S)[nH]c1-c1ccccc1 :: 81.8

Fill in the blank: the reported growth of `N#Cc1nc2c(S(=O)(=O)c3ccccc3)c(N)n(Cc3cccnc3)c2nc1C#N` is ____. 70.9

Fill in the blank: the reported growth of `C[N+](C)(C/C=C/c1ccccc1)Cc1ccccc1` is ____. 107

Fill in the blank: the reported growth of `O=C1Nc2ccc(F)cc2/C1=C\c1nc(-c2ccccc2F)n2ccccc12` is ____. 80.6

Fill in the blank: the reported growth of `COc1ccc2c(O)c(/C=C3\N=Nc4ccccc43)oc2c1C[C@H]1CCNC[C@H]1F` is ____. 61

Fill in the blank: the reported growth of `COC(=O)Cc1nc(C#N)c(N(C)C)o1` is ____. 101

Fill in the blank: the reported growth of COc1cc(C2C3=C(COC3=O)N(CCO)c3cc4c(cc32)OCCO4)cc(OC)c1OC (stereo unspecified) is ____. 6.75
